Entry source: patent US9255103B2

METRIC: melting point (°C)

Some entries whose results are on file:
What value of melting point has been recorded for this entry: O=C(c1ccc(F)c(F)c1)N1CCn2nc(COc3ccccc3)cc2C1 [Compound 4]
100.6

What value of melting point has been recorded for this entry: O=C(c1c(F)cccc1F)N1CCn2nc(COc3ccccc3)cc2C1 [Compound 6]
95.8

a. O=C(c1ccc(F)cc1)N1CCn2nc(COc3ccccc3)cc2C1 [Compound 1]
b. N#Cc1ccc(C(=O)N2CCn3nc(COc4ccccc4)cc3C2)cc1F [Compound 27]
Hi, I'm comparing a with b and wondering which one has the bigger number for melting point. Any idea? // caller expects the label of the chosen entry
a
(a: 106 °C, b: 60.3 °C)

---

molecular target: human mGluR5a receptor (Homo sapiens); test: Cell-based functional Ca2+ mobilization assay (FDSS), potentiation of glutamate EC20 response in H10H cell line; conditions: HEK293, maximum average response at a single concentration, percent of maximal glutamate response; human mGluR5 HEK cells; read-out: Emax
METRIC: Emax (%)

a. CC1CN(C(=O)c2ccc(F)cc2)Cc2cc(COc3ccccc3)nn21 (racemic) [Compound 16]
b. O=C(c1ncccc1Cl)N1CCn2nc(COc3ccccc3)cc2C1
c. CC(Oc1ccccc1)c1cc2n(n1)CCN(C(=O)c1ccc(F)cc1)C2 (racemic)
d. Cc1ncc(C(=O)N2CCn3nc(COc4cccc(F)c4)cc3C2)cn1
Returns the items ordered by Emax, from maximum to minimum. In your reply, arrange the labels in the requested order.
a, b, c, d
(a: 77%, b: 47%, c: 25%, d: 12%)

P. O=C(c1ccc(F)c(F)c1)N1CCn2nc(COc3cccc(F)c3)cc2C1
Q. O=C(c1ccnnc1)N1CCn2nc(COc3cccc(F)c3)cc2C1
R. O=C(c1ccc(F)cc1)N1CCn2nc(COc3ccccc3)c(Cl)c2C1
Put the molecules in ascending order of Emax. In your reply, arrange the labels in the requested order.
R, Q, P
(R: 23%, Q: 39%, P: 75%)

---

METRIC: melting point (°C)

Some entries whose results are on file:
What value of melting point has been recorded for this entry: `O=C(c1ncccc1Cl)N1CCn2nc(COc3ccccc3)cc2C1`
60

What value of melting point has been recorded for this entry: `Cc1cccc(C(=O)N2CCn3nc(COc4cccc(F)c4)cc3C2)n1`
88

What value of melting point has been recorded for this entry: CC1Cn2nc(COc3ccccc3)cc2CN1C(=O)c1cccc(C#N)c1 (stereo not drawn) [Compound 50]
53.9

What value of melting point has been recorded for this entry: `O=C(c1ccc(F)cc1)N1CCn2nc(COc3ccccc3)c(Cl)c2C1`
136

What value of melting point has been recorded for this entry: `O=C(c1ccccc1)N1CCn2nc(COc3cccc(F)c3)cc2C1`
159.2

I. N#Cc1cccc(C(=O)N2CCn3nc(COc4cccc(F)c4)cc3C2)c1
II. Cc1c(COc2ccccc2)nn2c1CN(C(=O)c1ccc(F)cc1)CC2
Hi, I'm comparing I with II and wondering which one has the bigger number for melting point. Any idea? // caller expects the label of the chosen entry
II
(II: 158.5 °C, I: 101.5 °C)

---

target: human mGluR5a receptor (Homo sapiens, UniProt P41594); assay: Cell-based functional Ca2+ mobilization assay (FDSS), potentiation of glutamate EC20 response in H10H cell line; conditions: HEK293, maximum average response at a single concentration, percent of maximal glutamate response; human mGluR5 HEK cells; read-out: Emax
Sequence (P41594 21-1180 isoform P41594-2 limits assumed): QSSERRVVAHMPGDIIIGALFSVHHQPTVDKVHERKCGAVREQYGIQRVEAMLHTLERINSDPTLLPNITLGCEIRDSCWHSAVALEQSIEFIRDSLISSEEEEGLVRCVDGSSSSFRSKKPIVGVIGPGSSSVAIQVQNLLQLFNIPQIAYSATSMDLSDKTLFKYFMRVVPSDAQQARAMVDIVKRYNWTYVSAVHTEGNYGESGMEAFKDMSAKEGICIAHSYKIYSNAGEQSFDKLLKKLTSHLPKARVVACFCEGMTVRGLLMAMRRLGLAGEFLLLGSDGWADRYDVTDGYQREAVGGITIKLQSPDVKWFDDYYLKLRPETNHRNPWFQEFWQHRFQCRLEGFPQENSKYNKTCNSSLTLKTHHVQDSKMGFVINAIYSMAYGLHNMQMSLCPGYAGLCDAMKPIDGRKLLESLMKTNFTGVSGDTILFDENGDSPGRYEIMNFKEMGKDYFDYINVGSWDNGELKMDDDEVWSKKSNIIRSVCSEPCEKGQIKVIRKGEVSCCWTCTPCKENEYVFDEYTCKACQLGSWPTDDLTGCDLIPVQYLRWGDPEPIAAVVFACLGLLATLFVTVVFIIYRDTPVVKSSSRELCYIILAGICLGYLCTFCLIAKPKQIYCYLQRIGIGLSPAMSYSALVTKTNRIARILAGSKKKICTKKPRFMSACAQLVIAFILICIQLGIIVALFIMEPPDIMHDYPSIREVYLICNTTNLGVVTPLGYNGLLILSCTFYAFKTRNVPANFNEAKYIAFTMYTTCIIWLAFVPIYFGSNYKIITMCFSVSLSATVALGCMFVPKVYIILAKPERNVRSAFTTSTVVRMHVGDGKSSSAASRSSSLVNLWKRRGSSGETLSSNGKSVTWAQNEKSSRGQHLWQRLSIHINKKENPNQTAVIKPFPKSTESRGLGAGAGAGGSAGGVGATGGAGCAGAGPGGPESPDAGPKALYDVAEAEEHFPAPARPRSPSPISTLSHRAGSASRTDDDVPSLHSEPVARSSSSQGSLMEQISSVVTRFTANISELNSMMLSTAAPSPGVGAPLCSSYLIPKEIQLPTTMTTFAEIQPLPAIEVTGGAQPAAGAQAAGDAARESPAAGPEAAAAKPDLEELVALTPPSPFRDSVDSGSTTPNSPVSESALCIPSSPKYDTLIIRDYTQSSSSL
METRIC: Emax (%)

I. O=C(c1ccccc1F)N1CCn2nc(COc3ccccc3)cc2C1 [Compound 2]
II. Cc1cccnc1C(=O)N1CCn2nc(COc3cccc(F)c3)cc2C1 [Compound 14]
Hi, I'm comparing I with II and wondering which one has the bigger number for Emax. Any idea? // caller expects the label of the chosen entry
I

I. O=C(c1cccc(F)c1F)N1CCn2nc(COc3ccccc3)cc2C1 [Compound 7]
II. COc1c(COc2ccccc2)nn2c1CN(C(=O)c1ccc(F)cc1)CC2 [Compound 59]
Which of these two has the smaller recorded Emax: I or II ? // caller expects the label of the chosen entry
II
